tested system: human α1B‐adrenoceptor (Homo sapiens)
Construct: expressed in transfected cells; host or cells: CHO-K1
Sequence (P35368 whole entry): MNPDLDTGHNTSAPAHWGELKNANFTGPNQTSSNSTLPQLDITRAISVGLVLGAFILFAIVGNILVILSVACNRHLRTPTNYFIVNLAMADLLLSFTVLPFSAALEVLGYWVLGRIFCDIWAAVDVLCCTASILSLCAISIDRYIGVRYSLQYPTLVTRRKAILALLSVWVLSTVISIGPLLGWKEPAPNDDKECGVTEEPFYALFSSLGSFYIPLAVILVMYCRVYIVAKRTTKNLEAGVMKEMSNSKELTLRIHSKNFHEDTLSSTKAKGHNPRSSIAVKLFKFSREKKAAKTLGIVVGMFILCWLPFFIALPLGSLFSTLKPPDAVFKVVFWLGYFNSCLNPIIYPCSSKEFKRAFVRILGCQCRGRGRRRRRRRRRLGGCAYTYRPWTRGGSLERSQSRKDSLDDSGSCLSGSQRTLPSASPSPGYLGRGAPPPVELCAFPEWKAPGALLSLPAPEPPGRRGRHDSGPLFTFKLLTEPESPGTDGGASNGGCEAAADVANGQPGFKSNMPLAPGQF
experiment notes: Intracellular free calcium mobilization, CHO‐α1B cells
Assay type: cell-based
property name: Intracellular calcium release Log EC50
Answers are plain numbers.

>>> print(df.to_string())
                                   compound                           property_name  value_measured
0  CC(N)C(O)c1ccc(O)c(O)c1 (stereo not drawn) [α‐Methylnorepinephrine]  Intracellular calcium release Log EC50           −8.10

Query compound follows.
Fill in: Intracellular calcium release Log EC50 of Nc1cc(Cl)c(N=C2NCCN2)c(Cl)c1 [para‐amino‐clonidine] is ___ −7.79

---

tested system: human α1D‐adrenoceptor (full length) (Homo sapiens, UniProt P25100)
Construct: human α1D‐adrenoceptor (full length) were used; expressed in transfected cells; host or cells: CHO-K1
experiment notes: ERK1/2‐phosphorylation (Surefire Alphascreen), CHO‐α1D cells
Assay type: cell-based
protocol conditions: CHO‐α1D cells; log values given negative; read-out: ERK1/2‐phosphorylation Log EC50 (converted)
property name: EC50 (µM)
One number for each entry, in µM.

A selection of reference data follows.
                                   molecule  property_name  value_measured
0                    CNC[C@H](O)c1cccc(O)c1           EC50           0.676
1  CC(CCc1ccc(O)cc1)NCCc1ccc(O)c(O)c1 (stereo not drawn)           EC50           0.891
2                 CNC[C@H](O)c1ccc(O)c(O)c1           EC50           0.182

Provide EC50 values for the following items, in order.
1. c1ccc2c(CC3=NCCN3)cccc2c1
2. N=C(N)NC(=O)Cc1c(Cl)cccc1Cl
3. CCNCC(O)c1cccc(O)c1 (stereo not drawn)

1. 13.8
2. 6.92
3. 1.51

---

tested system: human α1A‐adrenoceptor (Homo sapiens)
Construct: expressed in transfected cells; host or cells: CHO-K1
Sequence (P35348 whole entry): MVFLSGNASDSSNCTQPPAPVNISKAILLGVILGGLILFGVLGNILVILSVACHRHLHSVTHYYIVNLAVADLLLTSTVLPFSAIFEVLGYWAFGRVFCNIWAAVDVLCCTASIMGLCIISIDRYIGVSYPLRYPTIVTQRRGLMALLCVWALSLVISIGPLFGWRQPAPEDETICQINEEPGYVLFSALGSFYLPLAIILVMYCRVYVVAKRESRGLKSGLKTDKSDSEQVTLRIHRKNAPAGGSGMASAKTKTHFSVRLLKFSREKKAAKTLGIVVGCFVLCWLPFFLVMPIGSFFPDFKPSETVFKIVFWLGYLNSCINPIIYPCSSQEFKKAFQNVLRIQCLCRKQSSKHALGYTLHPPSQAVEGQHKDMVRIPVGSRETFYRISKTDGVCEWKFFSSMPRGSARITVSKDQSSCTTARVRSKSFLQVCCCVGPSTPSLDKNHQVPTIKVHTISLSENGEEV
experiment notes: Intracellular free calcium mobilization, CHO‐α1A cells
Assay type: cell-based
Criterion: EC50 strictly less than 200 nM. Met: True. Not met: False.

Answered cases to consult:
In [3]: df
Out[3]:
                                   compound  assigned_class
0  C=CCc1ccccc1OC(C)C1=NCCN1 (centres unmarked)            True
1  CNCC(O)c1ccc(O)cc1 (centres unmarked) [Synephrine]           False
2               CN[C@@H](C)[C@H](O)c1ccccc1           False
3                    Cc1cccc(C)c1N=C1NCCCS1           False

# check: EC50 < 200 nM for `Cc1cc(C(C)(C)C)cc(C)c1CC1=NCCN1` True

---

tested system: human α1B‐adrenoceptor (Homo sapiens)
Construct: expressed in transfected cells; host or cells: CHO-K1
experiment notes: ^3H‐prazosin whole‐cell radioligand binding, CHO‐α1B cells
protocol conditions: Log KD α1B, ^3H‐prazosin whole cell binding, CHO‐α1B cells; given as log KD (negative); mean ± SEM
Kd vs 6 µM: less than gives 1; not less than gives -1.

Answer whether the molecule Clc1cccc(Cl)c1N=C1NCCN1 [Clonidine] has Kd strictly less than 6 µM -1

---

tested system: human α1D‐adrenoceptor (full length) (Homo sapiens)
Construct: human α1D‐adrenoceptor (full length) were used; expressed in transfected cells; host or cells: CHO-K1
Sequence (P25100 1-572): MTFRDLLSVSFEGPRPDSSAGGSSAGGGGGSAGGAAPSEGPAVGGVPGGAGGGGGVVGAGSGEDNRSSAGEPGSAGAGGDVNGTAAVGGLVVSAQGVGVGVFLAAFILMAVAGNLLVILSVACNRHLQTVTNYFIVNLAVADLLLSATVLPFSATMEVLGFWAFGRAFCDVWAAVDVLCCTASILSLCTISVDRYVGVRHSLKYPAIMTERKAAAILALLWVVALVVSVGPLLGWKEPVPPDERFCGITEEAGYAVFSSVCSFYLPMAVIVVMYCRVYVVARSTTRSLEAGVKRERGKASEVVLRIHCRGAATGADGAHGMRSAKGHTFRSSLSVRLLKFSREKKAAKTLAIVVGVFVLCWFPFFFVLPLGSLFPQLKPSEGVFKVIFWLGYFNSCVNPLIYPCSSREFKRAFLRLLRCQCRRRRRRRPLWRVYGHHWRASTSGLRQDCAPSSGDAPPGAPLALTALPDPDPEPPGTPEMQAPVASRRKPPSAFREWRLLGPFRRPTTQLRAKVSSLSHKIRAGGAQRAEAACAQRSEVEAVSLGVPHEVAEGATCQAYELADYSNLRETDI
experiment notes: ERK1/2‐phosphorylation (Surefire Alphascreen), CHO‐α1D cells
Assay type: cell-based
protocol conditions: CHO‐α1D cells; log values given negative; read-out: ERK1/2‐phosphorylation Log EC50 (converted)
property name: EC50 (µM)
One number for each entry, in µM.

>>> print(df.to_string())
                                   compound                             tested_system  value_measured
0  c1ccc(C2CC2)c(OCC2=NCCN2)c1 [Cirazoline]  human α1D‐adrenoceptor (full length) (Homo sapiens)             3.8
1   COc1nc(C)nc(Cl)c1N=C1NCCN1 [Moxonidine]  human α1D‐adrenoceptor (full length) (Homo sapiens)            14.8
2  NCC(O)c1ccc(O)cc1 (centres unmarked) [Octopamine]  human α1D‐adrenoceptor (full length) (Homo sapiens)            18.6
3  C[C@H](N)[C@H](O)c1cccc(O)c1 [Metaraminol]  human α1D‐adrenoceptor (full length) (Homo sapiens)            2.69

Consider the additional compound presented here.
Param item = COc1ccc(OC)c(C(O)C(C)N)c1 (centres unmarked) [Methoxamine] ; retrieve measured EC50. 8.32

---

tested system: human α1D‐adrenoceptor (full length) (Homo sapiens)
Construct: human α1D‐adrenoceptor (full length) were used; expressed in transfected cells; host or cells: CHO-K1
experiment notes: ^3H‐cAMP accumulation in the presence of 10 μM forskolin, CHO‐α1D cells
Type: cell-based
protocol conditions: CHO‐α1D cells; fold increase of the forskolin response
property name: cAMP (in presence of forskolin) Fold increase
Numbers only.

In [3]: df
Out[3]:
                                   molecule  value_measured
0  COc1ccc(OC)c(C(O)C(C)N)c1 (stereo not shown)            1.21
1    CCNCC(O)c1cccc(O)c1 (stereo not shown)            1.18
2              C[C@H](N)[C@H](O)c1cccc(O)c1            1.19

Record cAMP (in presence of forskolin) Fold increase per entry; entries follow.
1. CC(N)C(O)c1ccc(O)c(O)c1 (stereo not drawn) [α‐Methylnorepinephrine]
2. N=C(N)NC(=O)Cc1c(Cl)cccc1Cl

1: 1.23; 2: 1.20

I would be grateful if you could provide cAMP (in presence of forskolin) Fold increase for each of the following entries.
1. CC(CCc1ccc(O)cc1)NCCc1ccc(O)c(O)c1 (stereo not shown)
2. NCC(O)c1ccc(O)cc1 (stereo not shown)

[1.16, 1.17]

---

tested system: human α1D‐adrenoceptor (full length) (Homo sapiens, UniProt P25100)
Construct: human α1D‐adrenoceptor (full length) were used; expressed in transfected cells; host or cells: CHO-K1
experiment notes: ERK1/2‐phosphorylation (Surefire Alphascreen), CHO‐α1D cells
Type: cell-based
protocol conditions: CHO‐α1D cells; maximal response as % of PDBu
property name: ERK1/2‐phosphorylation % PDBu (%)
Give bare numbers, in %.

# count of solved cases: 5
                                   compound  unit_annotation  value_measured
0  NC[C@H](O)c1ccc(O)c(O)c1 [Noradrenaline]                %            30.0
1  N=C(N)NC(=O)Cc1c(Cl)cccc1Cl [Guanfacine]                %            16.1
2  CC(CCc1ccc(O)cc1)NCCc1ccc(O)c(O)c1 (centres unmarked) [Dobutamine]                %            26.2
3  C[C@H](N)[C@H](O)c1cccc(O)c1 [Metaraminol]                %            20.5
4  CC(C)(C)NCC(O)COc1cccc2[nH]c(=O)[nH]c12 (centres unmarked) [CGP 12177]                %            25.8

State the recorded ERK1/2‐phosphorylation % PDBu for every item in the following list.
1. c1ccc2c(CC3=NCCN3)cccc2c1 [Naphazoline]
2. CNC[C@H](O)c1ccc(O)c(O)c1 [Adrenaline]

1: 33.0; 2: 32.2

Where do the numbers come from? From paper PMC8343220.
